biological target: PI3Kδ (Homo sapiens, UniProt O00329); assay: In vitro enzyme inhibition assay (Kinase Glo), PI3Kδ; format: biochemical; settings: Test (a); human recombinant enzyme; Table A; read-out: PI3Kδ inhibition, IC50
Sequence (O00329 whole entry): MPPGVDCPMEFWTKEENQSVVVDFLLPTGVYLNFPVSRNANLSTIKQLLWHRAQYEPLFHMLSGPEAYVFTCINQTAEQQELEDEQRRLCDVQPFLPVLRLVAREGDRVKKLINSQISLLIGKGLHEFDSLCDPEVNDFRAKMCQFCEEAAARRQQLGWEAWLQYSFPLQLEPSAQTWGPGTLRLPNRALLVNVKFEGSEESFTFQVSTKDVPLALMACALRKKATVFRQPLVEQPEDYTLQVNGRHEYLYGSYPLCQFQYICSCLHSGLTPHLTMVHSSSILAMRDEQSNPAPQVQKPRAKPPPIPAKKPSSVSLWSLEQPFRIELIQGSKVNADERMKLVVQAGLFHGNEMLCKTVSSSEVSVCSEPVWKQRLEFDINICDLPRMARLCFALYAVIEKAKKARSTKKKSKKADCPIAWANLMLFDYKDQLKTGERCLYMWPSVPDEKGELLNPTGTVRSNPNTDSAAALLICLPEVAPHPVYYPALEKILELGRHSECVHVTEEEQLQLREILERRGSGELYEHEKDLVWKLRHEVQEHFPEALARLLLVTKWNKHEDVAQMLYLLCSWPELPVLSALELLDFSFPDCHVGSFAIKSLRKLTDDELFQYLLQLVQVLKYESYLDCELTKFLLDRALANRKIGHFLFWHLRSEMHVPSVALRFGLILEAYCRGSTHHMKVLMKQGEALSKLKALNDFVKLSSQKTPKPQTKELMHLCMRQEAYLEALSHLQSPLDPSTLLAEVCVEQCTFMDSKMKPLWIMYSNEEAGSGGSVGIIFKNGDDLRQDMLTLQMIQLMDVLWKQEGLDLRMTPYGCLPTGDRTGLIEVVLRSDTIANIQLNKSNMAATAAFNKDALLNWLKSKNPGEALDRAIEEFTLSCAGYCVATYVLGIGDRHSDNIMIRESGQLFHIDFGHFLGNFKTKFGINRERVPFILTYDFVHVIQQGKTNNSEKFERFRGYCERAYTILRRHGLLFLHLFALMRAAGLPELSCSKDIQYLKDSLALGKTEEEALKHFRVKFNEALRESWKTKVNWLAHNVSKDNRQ
Sequence (P27986 whole entry partner): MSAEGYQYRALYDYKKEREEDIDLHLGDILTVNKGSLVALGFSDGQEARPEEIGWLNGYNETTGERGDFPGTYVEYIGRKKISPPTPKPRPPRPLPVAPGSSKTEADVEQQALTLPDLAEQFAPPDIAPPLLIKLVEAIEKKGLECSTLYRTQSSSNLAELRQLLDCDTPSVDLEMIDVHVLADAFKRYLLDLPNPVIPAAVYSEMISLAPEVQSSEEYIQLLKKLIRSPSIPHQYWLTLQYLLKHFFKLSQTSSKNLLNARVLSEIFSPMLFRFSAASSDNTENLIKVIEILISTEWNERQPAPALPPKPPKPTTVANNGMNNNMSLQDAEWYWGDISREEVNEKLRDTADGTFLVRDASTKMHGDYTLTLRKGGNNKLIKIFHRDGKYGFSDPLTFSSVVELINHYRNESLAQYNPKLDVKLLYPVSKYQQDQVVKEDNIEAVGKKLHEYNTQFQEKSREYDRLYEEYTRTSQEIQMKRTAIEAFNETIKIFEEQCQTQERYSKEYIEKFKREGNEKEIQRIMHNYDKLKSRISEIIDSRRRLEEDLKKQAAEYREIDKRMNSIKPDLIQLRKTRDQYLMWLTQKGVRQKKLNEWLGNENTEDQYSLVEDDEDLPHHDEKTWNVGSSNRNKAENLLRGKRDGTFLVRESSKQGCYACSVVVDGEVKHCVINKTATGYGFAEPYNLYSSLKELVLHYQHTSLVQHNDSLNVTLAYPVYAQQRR
READOUT_LABEL: pIC50
Quick note: pIC50 values are minus log10 of concentrations in mol/L.

Known pIC50 results, listed for orientation:
INSERT INTO measurements (compound, readout_label, measured_number) VALUES
  ('O=C(c1cc(C2CCCN2c2ccc(F)cc2)c2oc(N3CCOCC3)cc(=O)c2c1)N1CCOCC1 (racemic)', 'pIC50', 7.49),
  ('O=C(c1cc(C2CCCN2c2cc(F)cc(F)c2)c2oc(N3CCOCC3)cc(=O)c2c1)N1CCC(O)CC1 (stereo not shown)', 'pIC50', 7.85),
  ('CN(C)C(=O)c1cc([C@H]2CCCN2c2cccc(F)c2)c2oc(N3CCOCC3)cc(=O)c2c1', 'pIC50', 8.15);

Would you kindly look at the next entry?
**Query** Hello, I am looking for reported pIC50 with PI3Kδ (Homo sapiens, UniProt O00329) for C[C@@H]1CN(c2cc(=O)c3cc(C(=O)N4CCOCC4)cc(C4CCCN4c4cccc(F)c4)c3o2)CCO1 (stereo partly shown) . Could you help?
**Result** 8.00
